Reference source for all entries: ChEMBL document CHEMBL3102727

- measurementProtocol: Metabolic stability in human liver microsomes assessed as compound remaining after 10 mins
- Assay type: ADME
- particulars: read-out: Stability
measuredParameter: remaining at 10 min (%)
Use % as the unit, but write only the number.

Use the examples below as a reference point.
CC(C)(C)CN1CCC2(CC1)CN(c1ccccc1NC(=O)Nc1ccc(OC(F)(F)F)cc1)c1ccccc12; 89
CC1(C)CCN(c2ccccc2NC(=O)Nc2ccc(OC(F)(F)F)cc2)c2ccccc21; 51
CC(C)(C)CN1CCC2(CC1)CN(c1ccccc1NC(=O)Nc1ccc(OC(F)(F)F)cc1)c1cnccc12; 67

The compound listed as `CC(C)CN1CCC2(CC1)CN(c1ccccc1NC(=O)Nc1ccc(OC(F)(F)F)cc1)c1ccccc12` has a reported remaining at 10 min of 79

The compound listed as `CC(C)(C)CN1CCC2(CC1)CCN(c1ccccc1NC(=O)Nc1ccc(OC(F)(F)F)cc1)c1ccccc12` has a reported remaining at 10 min of 90

====

- targetOfAssay: P2Y purinoceptor 1 (Homo sapiens)
- Sequence (P47900 whole entry): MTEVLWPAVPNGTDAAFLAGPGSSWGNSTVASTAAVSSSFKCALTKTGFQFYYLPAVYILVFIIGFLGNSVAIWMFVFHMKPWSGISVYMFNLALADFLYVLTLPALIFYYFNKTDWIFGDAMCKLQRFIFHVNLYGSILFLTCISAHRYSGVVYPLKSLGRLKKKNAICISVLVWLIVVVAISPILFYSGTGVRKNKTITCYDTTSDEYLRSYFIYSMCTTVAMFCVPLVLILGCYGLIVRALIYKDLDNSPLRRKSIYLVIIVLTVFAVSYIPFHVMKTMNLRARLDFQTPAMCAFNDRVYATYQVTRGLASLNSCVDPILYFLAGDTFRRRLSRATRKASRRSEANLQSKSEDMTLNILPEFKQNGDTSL
Collected Ki values appear next to each entry.
Use nM as the unit, but write only the number.

Use the examples below as a reference point.
CC(C)(C)CN1CCCC2(C1)CN(c1ccccc1NC(=O)Nc1ccc(OC(F)(F)F)cc1)c1ccccc12 (stereo not drawn); 12.8
CC(C)(C)CN1CCC2(CC1)CN(c1ccccc1NC(=O)Nc1ccc(OC(F)(F)F)cc1)c1ccccc12; 4.3
CC(C)(C)CN1CCC2(CC1)CN(c1ccccc1NC(=O)Nc1ccc(OC(F)(F)F)cc1)c1ncccc12; 253
O=C(Nc1ccc(OC(F)(F)F)cc1)Nc1ccccc1N1CC2(CCCC2)c2ccccc21; 6.6
CC(C)(C)CN1CCC2(CC1)CN(c1ccccc1NC(=O)Nc1ccc(OC(F)(F)F)cc1)c1cccnc12; 28.7

The compound listed as `O=C(O)CN1CCC2(CC1)CN(c1ccccc1NC(=O)Nc1ccc(OC(F)(F)F)cc1)c1ccccc12` has a reported Ki of 13500

The compound listed as `O=C(Nc1ccc(OC(F)(F)F)cc1)Nc1ccccc1N1CCOc2ccccc21` has a reported Ki of 65

The compound listed as `CC(C)(C)CN1CCC2(CC1)CN(c1ccccc1NC(=O)Nc1ccc(OC(F)(F)F)cc1)c1cnccc12` has a reported Ki of 11.5

====

- measurementProtocol: Half life in rat at 0.5 mg/kg, iv administered as bolus dose and po
- Format: ADME, organism-based
- Design: dose 0.5 mg/kg, route oral
- particulars: in vivo
measuredParameter: half-life (min)
Use min as the unit, but write only the number.

The molecule listed as `CC(C)(C)CN1CCC2(CC1)CN(c1ccccc1NC(=O)Nc1ccc(OC(F)(F)F)cc1)c1ccccc12` has a reported half-life of 450

====

- targetOfAssay: P2Y purinoceptor 1 (Homo sapiens)
- measurementProtocol: Antagonist activity at P2Y1 receptor in washed human platelets assessed as 1 uM 2-methylthio-ADP-induced calcium flux by FLIPR assay
- Type: functional
measuredParameter: IC50 (nM)
Use nM as the unit, but write only the number.

O=C(Nc1ccc(OC(F)(F)F)cc1)Nc1ccccc1N1CC2(CCC2)c2ccccc21; 10.5
CC(C)(C)CN1CCC2(CC1)CN(c1ccccc1NC(=O)Nc1ccc(OC(F)(F)F)cc1)c1ncccc12; 503

The value of IC50 recorded for `CC(C)(C)CN1CCC2(CC1)CN(c1ccccc1NC(=O)Nc1ccc(OC(F)(F)F)cc1)c1cnccc12` when tested on P2Y purinoceptor 1 (Homo sapiens) reads 10.7

The value of IC50 recorded for `CC(C)(C)CN1CCC2(CC1)CN(c1ccccc1NC(=O)Nc1ccc(OC(F)(F)F)cc1)c1ccccc12` when tested on P2Y purinoceptor 1 (Homo sapiens) reads 2.5
